# Method Summary: in vitro
# Settings: human, Caco-2
Entries annotated with measured Papp

Compound | Papp
CNCC[C@@H](Oc1ccccc1C)c1ccccc1 [atomoxetine, reference compound] | 2.7 ×10⁻⁶ cm/s
Cc1cc(C)cc(N)c1 | 67.4 ×10⁻⁶ cm/s
O=C(O)Cc1ccccc1Nc1c(Cl)cccc1Cl [diclofenac, reference compound] | 75.6 ×10⁻⁶ cm/s
CC[C@H](C)C(=O)O[C@H]1C[C@H](O)C=C2C=C[C@H](C)[C@H](CC[C@@H](O)C[C@@H](O)CC(=O)O)[C@H]21 [pravastatin, reference compound] | 0.9 ×10⁻⁶ cm/s

---

# Method Summary: in vitro
# Settings: human, Caco-2
The compounds listed here are annotated with their Papp.
Readout Name: Papp (×10⁻⁶ cm/s)

Compound | Readout Name | Unit Annotation | Experimental Result
CC(C)N(CCC(C(N)=O)(c1ccccc1)c1ccccn1)C(C)C (centres unmarked) [disopyramide, reference compound] | Papp | ×10⁻⁶ cm/s | 1.4
O=C1NC(=O)c2ccccc21 [phthalimide] | Papp | ×10⁻⁶ cm/s | 93.3
CN1CCN2c3ncccc3Cc3ccccc3C2C1 (centres unmarked) [mirtazapine, reference compound] | Papp | ×10⁻⁶ cm/s | 4.6
Cc1cc(N)c(S(=O)(=O)O)cc1Cl | Papp | ×10⁻⁶ cm/s | 2
N#Cc1ccc(C#N)cc1 | Papp | ×10⁻⁶ cm/s | 57.3

---

# Method Summary: in vitro
# Settings: human, Caco-2
The molecules listed here are annotated with their Papp.
Readout Name: Papp (×10⁻⁶ cm/s)

Molecule | Experimental Result
Nc1cccc(S(=O)(=O)O)c1 | 2.1
CN(Cc1cnc2nc(N)nc(N)c2n1)c1ccc(C(=O)N[C@@H](CCC(=O)O)C(=O)O)cc1 [methotrexate, reference compound] | 1.1
Nc1ccccc1 | 54.4
COCCc1ccc(OCC(O)CNC(C)C)cc1 (centres unmarked) [metoprolol, reference compound] | 3.4
Oc1ccc(Cl)cc1 | 43.1
CCCCOC(=O)c1ccccc1C(=O)O [monobutyl phthalate] | 31.8
CN1C(=O)CC[C@H]1c1cccnc1 | 41.2
Sc1nc2ccccc2[nH]1 | 67.3
Cc1ccc(N)cc1C | 54.1
O=C(O)c1ccc(O)cc1 [p-hydroxybenzoic acid] | 60.9
Cc1cccc(O)c1 | 85.1
COc1ccc2c3c1O[C@H]1[C@@H](O)CC[C@H]4[C@@H](C2)N(C)CC[C@@]341 [dihydrocodeine, reference compound] | 2.4
O=C1CCC(N2C(=O)c3ccccc3C2=O)C(=O)N1 (centres unmarked) [thalidomide, reference compound] | 23.5
Cc1cc(Cl)ccc1O | 75.4
OCCOCCN1CCN(C2=Nc3ccccc3Sc3ccccc32)CC1 [quetiapine, reference compound] | 3.8
Cc1cc2c(s1)Nc1ccccc1N=C2N1CCN(C)CC1 [olanzapine, reference compound] | 3.5
Nc1ccccc1-c1ccccc1 | 57.6
CC(=O)CC(c1ccccc1)c1c(O)c2ccccc2oc1=O (centres unmarked) [warfarin, reference compound] | 121
Cc1cccc(N)c1C | 62.4
Oc1ccc(-c2ccccc2)cc1 [4-hydroxybiphenyl] | 44.1
Nc1cccc2c1CN(C1CCC(=O)NC1=O)C2=O (centres unmarked) [lenalidomide, reference compound] | 0.7
O=C(O)CNC(=O)c1ccccc1 | 0.6
CC(C)NCC(O)COc1cccc2ccccc12 (centres unmarked) [propranolol, reference compound] | 2.9
Nc1ccccc1Cl | 89.3
N#Cc1cccnc1 | 56.9
c1ccc2[nH]cnc2c1 | 73
CCCCNC(=O)NS(=O)(=O)c1ccc(C)cc1 [tolbutamide, reference compound] | 122
CCOc1ccc2ccc(=O)oc2c1 | 75
O=c1ccc2ccc(O)cc2o1 [7-hydroxycoumarin] | 103
CC(=O)[C@H]1CC[C@H]2[C@@H]3CCC4=CC(=O)CC[C@]4(C)[C@H]3CC[C@]12C [progesterone, reference compound] | 11.3
CCNc1ccccc1 | 66
COc1ccc(C(=O)NCc2ccc(OCCN(C)C)cc2)cc1OC [itopride, reference compound] | 1.2
CN(C)CCCOc1nn(Cc2ccccc2)c2ccccc12 [benzydamine, reference compound] | 1.6
CC[C@H](C)C(=O)O[C@H]1C[C@@H](C)C=C2C=C[C@H](C)[C@H](CC[C@@H]3C[C@@H](O)CC(=O)O3)[C@H]21 [lovastatin, reference compound] | 2.1
CN(C)c1ccccc1 | 99.9
Cc1ccc(O)cc1 | 50.7
Nc1cccc([N+](=O)[O-])c1 | 52
Cc1ncc2n1-c1ccc(Cl)cc1C(c1ccccc1F)=NC2 [midazolam, reference compound] | 31.8
Oc1nc2ccccc2[nH]1 [2-hydroxybenzimidazole] | 50.7
O=C(O)c1ccccc1 | 149
c1ccc(Nc2ccccc2)cc1 | 15.1

---

# Method Summary: in vitro
# Settings: human, Caco-2
Papp reference
Readout Name: Papp (×10⁻⁶ cm/s)

Compound | Readout Name | Experimental Result
[H]/N=C(/N)c1ccc(NCc2nc3cc(C(=O)N(CCC(=O)O)c4ccccn4)ccc3n2C)cc1 [dabigatran, reference compound] | Papp | 3.8
Cc1ccc(N)c(C)c1 | Papp | 66.1
CCC(C)c1ccc(O)cc1 (stereo not shown) | Papp | 40.2
Nc1cccc(O)c1 | Papp | 51.3
Cc1ccccc1O | Papp | 90.5
Oc1ccccc1Cl | Papp | 75.2
CC(C)(c1ccccc1)c1ccc(O)cc1 | Papp | 19.5
Cc1cccc(Nc2ccccc2C(=O)O)c1C [mefenamic acid, reference compound] | Papp | 180
CNc1ccccc1 | Papp | 46.3
CN1CCC[C@H]1c1cccnc1 [nicotine, reference compound] | Papp | 5.7
Nc1cccc2c1C(=O)N(C1CCC(=O)NC1=O)C2=O (stereo not shown) [pomalidomide, reference compound] | Papp | 46.6
COP(=O)(OC)SCn1c(=O)oc2cc(Cl)cnc21 | Papp | 40.2
CC(C)(c1ccc(O)cc1)c1ccc(O)cc1 | Papp | 32.1
